Origin of the recorded values: PubChem BioAssay (NCI)

- Tested on: NCI-H226 lung
- assay notes: NCI-60 one-dose screen, 48 h
- run parameters: 10 µM unless noted
Compounds without any hit were thinned out: in the full panel of roughly 83,000, 20% have a hit. Calls of active or inactive are those of the source. Rule for the calls: active = growth percent below 10; inactive = the rest.
Hello, when you answer, please use one of the following outcomes: YES (active), NO (inactive)

Check out these entries, answers already filled in.
>  <compound>
COc1c(F)ccc(C(=O)Nc2ccc3nc(NC(=O)C4CCCN(S(=O)(=O)c5cccc(C(F)(F)F)c5)C4)sc3c2)c1F (centres undefined)

>  <target>
NCI-H226 lung

>  <category label>
NO

$$$$
>  <compound>
C/C(=N\Nc1ccc(S(N)(=O)=O)cc1)c1ccc(N=Nc2c(Nc3ccccc3)[nH][nH]c2=O)cc1

>  <target>
NCI-H226 lung

>  <category label>
NO

$$$$
>  <compound>
CN(C)CCn1c2ccccc2c2nc3ccc([N+](=O)[O-])cc3nc21

>  <target>
NCI-H226 lung

>  <category label>
YES

$$$$

[Q] For CC(C)CSc1nc(NCCc2c[nH]c3ccccc23)c(C#N)c(-c2ccccc2)n1 , what call appears in the results of this test?
[A] NO

[Q] For Cc1ccc2c(N)c(C(=O)Nc3ccc(-c4ccccc4)cc3)sc2n1 , what call appears in the results of this test?
[A] NO

[Q] For Cn1cc(-c2cc(N)n3nc(-c4c[nH]c5ccccc45)cc3n2)c2cc(Br)cnc21 , what call appears in the results of this test?
[A] YES

[Q] For O=C1NC(=O)c2c1c1c3cc(Br)ccc3[nH]c1c1oc3ccc(F)cc3c21 , what call appears in the results of this test?
[A] YES

[Q] For COc1cc(OC)cc(C(=O)Nc2cccc(-c3cn(-c4ccc(S(N)(=O)=O)cc4)nn3)c2)c1 , what call appears in the results of this test?
[A] NO

[Q] For Cn1cc(-c2nnc(N)nc2-c2c[nH]c3ccc(F)cc23)c2cccnc21 , what call appears in the results of this test?
[A] NO

----------
- Test system: SNB-75 CNS
- assay notes: NCI-60 one-dose screen, 48 h (100 = growth as untreated, 0 = no growth, -100 = all killed)
- run parameters: 10 µM unless noted
This is part of a sample that, as a whole, favours compounds with a hit. Of some 83,000 tested, about 20% had one in any assay.
Classify by measured growth: rule met if it is equal to or exceeds 60%, rule not met if it is smaller.

Check out these entries, answers already filled in.
>  <compound>
CSc1ccc(NC(=O)c2ccc3nn(/C(C#N)=C/c4ccccn4)nc3c2)cc1

>  <category label>
rule not met

$$$$
>  <compound>
N#Cc1ccc(C(=O)Nn2c(N)cc3ccccc3c2=O)cc1

>  <category label>
rule met

$$$$

[Q] // inclusive: growth at least 60%? input: N/C(=N\c1nc2ccccc2s1)NC(=O)Nc1ccc(Cl)cc1Cl
[A] rule not met

[Q] // inclusive: growth at least 60%? input: COCOc1ccc2c(=O)c(C)c(C(=O)N[C@@H](Cc3ccccc3)C(O)C(=O)NCCc3ccc(OC)cc3)oc2c1 (some centres undefined)
[A] rule met

[Q] // inclusive: growth at least 60%? input: COc1cc(-c2ccc(/C=N/NC(=O)c3[nH]c4ccc(Br)cc4c3-c3ccccc3)o2)cc(OC)c1OC
[A] rule met

[Q] // inclusive: growth at least 60%? input: Cc1cc(=O)oc2cc(OCCCOc3ccc(/C=C/C(=O)Nc4ccccc4N)cc3)ccc12
[A] rule not met

[Q] // inclusive: growth at least 60%? input: CC1=C(C(=O)c2ccccc2)C(c2cccc(Cl)c2Cl)n2c(nc3ccccc32)N1 (centres undefined)
[A] rule not met

----------
- Tested on: LOX IMVI melanoma
- assay notes: NCI-60 one-dose screen, 48 h
- run parameters: 10 µM
This is part of a sample that, as a whole, favours compounds with a hit. Of some 83,000 tested, about 20% had one in any assay. Calls of active or inactive are those of the source. How the source made its calls: active means growth percent below 10; inactive means the rest.
Hello, when you answer, please use one of the following outcomes: label 1 for active, label 0 for inactive

>  <molecule>
CC1(C)CC[C@]2(C(=O)Nc3ccc(Br)cc3)CC[C@]3(C)C(=CCC4[C@@]5(C)C[C@@H](O)[C@H](O)[C@@](C)(CO)C5CC[C@]43C)C2C1 (some centres undefined)

>  <category label>
label 1

$$$$
>  <molecule>
O=C(CN1C(=O)/C(=C/c2ccccc2Cl)SC1=S)N1CCOCC1

>  <category label>
label 0

$$$$
>  <molecule>
COc1ccc(-c2ccnc(SCc3cc4cc(OC)ccc4[nH]c3=O)n2)cc1

>  <category label>
label 0

$$$$

[Q] For Cc1ccc(-c2nc(Nc3ccccc3S(N)(=O)=O)c3ccccc3n2)cc1 , what call appears in the results of this test?
[A] label 1

[Q] For COc1ccc(-c2nnc3ccc(N/N=C/c4ccc(O)cc4)nn23)cc1 , what call appears in the results of this test?
[A] label 1

[Q] For N=C1N=C(SCc2nc3ccccc3[nH]2)NC(=O)/C1=C/c1ccc(Cl)cc1 , what call appears in the results of this test?
[A] label 0

[Q] For N/C(=N\c1nc2ccccc2s1)NC(=O)Nc1ccc(Cl)cc1Cl , what call appears in the results of this test?
[A] label 1

[Q] For Nc1nc(-c2ccccc2)c(N=Nc2ccc([N+](=O)[O-])cc2Cl)s1 , what call appears in the results of this test?
[A] label 0

[Q] For COc1ccc2[nH]c(=O)c(CSc3nccc(-c4ccc(OC)c(OC)c4)n3)cc2c1 , what call appears in the results of this test?
[A] label 0

[Q] For Cn1cc(-c2nnc(N)nc2-c2c[nH]c3ccc(Br)cc23)c2cc(Br)cnc21 , what call appears in the results of this test?
[A] label 0

[Q] For COc1cccc(/C=C/c2nc3ccccc3c(=O)n2CC(=O)Nc2ccc(Cl)cc2)c1 , what call appears in the results of this test?
[A] label 0

[Q] For C#CCOc1cc(N(CC)CC)ccc1C(C(=O)NC(C)(C)C)N(C(=O)C1CCc2cc(F)ccc2O1)c1ccc(F)c(Cl)c1 (centres undefined) , what call appears in the results of this test?
[A] label 0

[Q] For CC1(C)CC[C@]2(C(=O)O)CC[C@]3(C)C(=CCC4[C@@]5(C)C[C@@H](O)[C@@H]6OC(c7cccc(Br)c7)OC[C@@]6(C)C5CC[C@]43C)C2C1 (some centres undefined) , what call appears in the results of this test?
[A] label 0

[Q] For COc1ccc(C(=O)/C=C/c2cccc3ccccc23)cc1S(N)(=O)=O , what call appears in the results of this test?
[A] label 1

[Q] For O=C1Nc2ccc([N+](=O)[O-])cc2C1=Nc1ccccc1 , what call appears in the results of this test?
[A] label 0

[Q] For CN(C)c1nc(NCCNS(=O)(=O)c2ccc(C3=Nc4c(N)nc(N)nc4NC(c4ccc(C(F)(F)F)cc4)C3)cc2)nc(Nc2ccc(F)cc2)n1 (centres undefined) , what call appears in the results of this test?
[A] label 1

[Q] For CC1=C(C#N)C2=NNCC(c3ccccc3)=NN2C(c2ccccc2)=C1 , what call appears in the results of this test?
[A] label 0

[Q] For COc1ccc(C(=O)/C=C/c2cccc(Cl)c2Cl)cc1S(N)(=O)=O , what call appears in the results of this test?
[A] label 1

[Q] For CCCCCCn1c(O)c(N=Nc2nc(-c3cc4ccccc4oc3=O)cs2)c2ccccc21 , what call appears in the results of this test?
[A] label 1

----------
- Tested on: IGROV1 ovarian
- assay notes: NCI-60 one-dose screen, 48 h (100 = growth as untreated, 0 = no growth, -100 = all killed)
- run parameters: 10 µM unless noted
Compounds without any hit were thinned out: in the full panel of roughly 83,000, 20% have a hit.
With a cut-off of 70%, any growth strictly below it is called T; any growth meeting it or above is called F.

Check out these entries, answers already filled in.
>  <molecule>
CN(C)c1nc(NCCNS(=O)(=O)c2ccc(C3=Nc4c(N)nc(N)nc4NC(c4ccccc4)C3)cc2)nc(Nc2ccc(F)cc2)n1 (centres undefined)

>  <category label>
T

$$$$
>  <molecule>
Cn1cc(-c2nnc(N)nc2-c2c[nH]c3ccc(Br)cc23)c2cc(Br)cnc21

>  <category label>
T

$$$$
>  <molecule>
N#Cc1c(NCc2ccccc2)n[nH]c1Nc1ccccc1

>  <category label>
F

$$$$
>  <molecule>
COc1cc2oc(-c3cccc(NC(=O)[C@H](CC(N)=O)NC(=O)OC(C)(C)C)c3)cc(=O)c2c(OC)c1OC

>  <category label>
F

$$$$
>  <molecule>
COC(OC)C1=C(C)OC(N)=C(C#N)C12C(=O)Nc1ccccc12 (centres undefined)

>  <category label>
F

$$$$

[Q] Take the molecule CN(C)CCOc1ccc(C(=O)C2[C@H](c3ccc(Cl)cc3)[C@@H](c3ccccc3)NC23C(=O)Nc2ccccc23)cc1 (some centres undefined) and say whether its growth is less than 70%.
[A] F

[Q] Take the molecule C=C1CCC2C3(C)COC(c4ccccc4)OC3CCC2(C)C1CC(NCc1ccccc1)C1=CCOC1=O (centres undefined) and say whether its growth is less than 70%.
[A] F

[Q] Take the molecule C=C1CC[C@@H]2[C@]3(C)COC(c4cn[nH]c4-c4ccc(C)cc4)O[C@@H]3CC[C@@]2(C)[C@@H]1C/C=C1/C(=O)OCC1O (some centres undefined) and say whether its growth is less than 70%.
[A] T
